Assay: qHTS assay for small molecule agonists of the p53 signaling pathway - cell viability (AID 651633); further: nearly all actives have a fitted effect of over 30% in size
Conditions: p53RE-bla HCT-116 viability, ATP luminescence, 16 h; series mostly up to 83.3 µM
Excerpt: National Center for Advancing Translational Sciences [NCATS] NIH Chemical Genomics Center [NCGC] U.S. Environmental Protection Agency [EPA] National Institutes of Environmental Health Sciences [NIEHS] National Toxicology Program [NTP] U.S. Food and Drug Administration [FDA] p53, a tumor suppressor protein, is activated following cellular insult, including DNA damage and other cellular stresses. […] The activation of the reporter gene under culture conditions can be detected by fluorescence intensity. […]
Records with an inconclusive call do not appear. Calls of active or inactive are those of the source. The call rests on the fitted dose curve.
Would you mind answering with one of these outcomes? TRUE for active, FALSE for inactive

> print(dat)
                                   compound  assigned.label
1  CCCCC(CC)COP(=O)(Oc1ccccc1)Oc1ccccc1 (centres undefined)           FALSE
2  CCC(COC(=O)c1cc(OC)c(OC)c(OC)c1)(c1ccccc1)N(C)C (centres undefined)           FALSE
3  COc1cc(CC(C)N)cc2c1OCO2 (centres undefined)           FALSE
4  O=C(NC(=O)c1c(F)cccc1F)Nc1cc(Cl)c(Oc2ncc(C(F)(F)F)cc2Cl)c(Cl)c1            TRUE
5                           Cc1ccc2ccccc2c1           FALSE
6                     Brc1ccc(Oc2ccccc2)cc1           FALSE

Query: Each compound tested received a call. Report the one for Cc1ccccc1C(=O)Nc1cccc(OC(C)C)c1 .
Reply: FALSE

Query: What about Cc1ccccc1CCl ?
Reply: FALSE

Query: What about C=CC[C@]1(O)CC[C@H]2[C@@H]3CCC4=CC(=O)CCC4=C3C=C[C@@]21C ?
Reply: FALSE

Query: What about CCOP(=O)(OCC)Oc1ccc([N+](=O)[O-])cc1 ?
Reply: FALSE

Query: What about CCOC(=O)C(Cl)C(C)=O (centres undefined) ?
Reply: FALSE

----------
assay: qHTS RealTime-Glo MT Cell Viability Assay in HEK293 cells - 40 hour (AID 1224874); conditions: RealTime-Glo luminescence; hits give low values; further: on the % scale 0 is the no-effect control and ±100 the full control effect; nearly all actives have a fitted effect of over 50% in size
Records with an inconclusive call do not appear.
outcome.measure: max response (%)
Field format: number, assumed %, no unit text.

Guide cases for max response, answers given:
> print(dat)
                                molecule  outcome.measure  recorded.number
1          COP(=S)(OC)Oc1cc(Cl)c(I)cc1Cl     max response            -19.9
2                      O=Cc1ccc(Cl)cc1Cl     max response            -1.06
3  O=C(O)CC(Cl)C(=O)O (stereo not given)     max response            0.924

Query: Would you mind telling me what max response value was observed for COP(=S)(OC)Oc1ccc([N+](=O)[O-])cc1Cl ?
Reply: -20.6

----------
Molecular target: Acetylcholinesterase (Homo sapiens) (UniProt P22303)
Sequence (P22303 whole entry, looked up): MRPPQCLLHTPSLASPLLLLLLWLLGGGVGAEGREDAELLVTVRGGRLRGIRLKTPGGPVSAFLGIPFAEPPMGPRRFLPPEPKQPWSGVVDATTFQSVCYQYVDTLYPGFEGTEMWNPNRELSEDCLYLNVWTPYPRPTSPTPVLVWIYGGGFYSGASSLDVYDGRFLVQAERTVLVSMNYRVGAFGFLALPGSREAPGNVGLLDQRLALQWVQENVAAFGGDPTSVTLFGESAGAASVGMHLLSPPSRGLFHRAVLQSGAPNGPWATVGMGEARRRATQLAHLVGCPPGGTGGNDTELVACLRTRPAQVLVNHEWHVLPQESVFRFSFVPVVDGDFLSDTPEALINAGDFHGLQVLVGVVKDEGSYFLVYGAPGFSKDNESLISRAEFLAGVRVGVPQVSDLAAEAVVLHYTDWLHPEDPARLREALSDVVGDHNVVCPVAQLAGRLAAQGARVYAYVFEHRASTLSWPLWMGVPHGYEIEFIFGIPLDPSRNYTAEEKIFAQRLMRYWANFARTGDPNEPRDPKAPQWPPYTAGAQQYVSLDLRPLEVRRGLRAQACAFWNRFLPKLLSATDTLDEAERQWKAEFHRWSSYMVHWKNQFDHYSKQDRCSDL
Experiment: Acetylcholinesterase (AChE) small molecule antagonists: colormetric cell-based qHTS assay (AID 1347395); further: nearly all actives have a fitted effect of over 30% in size
Conditions: SH-SY5Y cells AChE activity, colorimetric (Ellman); series mostly up to 115 µM
Description: National Center for Advancing Translational Sciences [NCATS] Division of Preclinical Innovation [DPI] U.S. Environmental Protection Agency [EPA] National Institutes of Environmental Health Sciences [NIEHS] National Toxicology Program [NTP] U.S. Food and Drug Administration [FDA] Acetylcholinesterase (AChE) is the primary cholinesterase in the body that hydrolyzes a key neurotransmitter, acetylcholine. Inhibition of AChE activity can lead to neurotoxicity. […]
Inconclusive results are not listed. Active and inactive are the calls of the source. The call rests on the fitted dose curve.
Would you mind answering with one of these outcomes? 1 for active, -1 for inactive

Some solved cases for reference:
> print(dat)
                                   molecule  assigned.label
1                      O=C(O)COc1ccc(Cl)cc1              -1
2  O=S1(=O)OC(c2cc(Br)c(O)c(Br)c2)(c2cc(Br)c(O)c(Br)c2)c2ccccc21              -1
3             COP(=S)(OC)Oc1cc(Cl)c(I)cc1Cl              -1
4                               CCOC(=O)CBr              -1
5     O=C(O)CC(Cl)C(=O)O (stereo not drawn)              -1

Query: Each molecule tested received a call. Report the one for O=C1C(=O)c2cccc3cccc1c23 .
Reply: -1

Query: What about CC(C)=CCOc1c2occc2cc2ccc(=O)oc12 ?
Reply: -1

Query: What about ClCc1ccccc1 ?
Reply: -1

Query: What about COP(=O)(OC)O/C(=C/Cl)c1cc(Cl)c(Cl)cc1Cl ?
Reply: 1

Query: What about CC(=O)[C@H]1CC[C@H]2[C@@H]3CC[C@H]4C[C@](C)(O)CC[C@]4(C)[C@H]3CC[C@]12C ?
Reply: -1

Query: What about COc1nn(CSP(=S)(OC)OC)c(=O)s1 ?
Reply: 1

Query: What about Clc1ccc(C(OCCN2CCCCC2)c2ccccc2)cc1 (stereo not drawn) ?
Reply: -1

Query: What about COC(=O)C(Br)CBr (stereo not drawn) ?
Reply: -1

Query: What about O=C(CBr)c1ccccc1 ?
Reply: -1

Query: What about Cc1ccccc1CCl ?
Reply: -1

----------
target: Estrogen receptor (Homo sapiens) (UniProt P03372); assay: qHTS assay to identify small molecule antagonists of the estrogen receptor alpha (ER-alpha) signaling pathway (AID 743069); conditions: HEK293 ER-alpha-UAS-bla, beta-lactamase ratio, antagonist mode; series mostly up to 69.4 µM
Sequence (P03372 whole entry, looked up): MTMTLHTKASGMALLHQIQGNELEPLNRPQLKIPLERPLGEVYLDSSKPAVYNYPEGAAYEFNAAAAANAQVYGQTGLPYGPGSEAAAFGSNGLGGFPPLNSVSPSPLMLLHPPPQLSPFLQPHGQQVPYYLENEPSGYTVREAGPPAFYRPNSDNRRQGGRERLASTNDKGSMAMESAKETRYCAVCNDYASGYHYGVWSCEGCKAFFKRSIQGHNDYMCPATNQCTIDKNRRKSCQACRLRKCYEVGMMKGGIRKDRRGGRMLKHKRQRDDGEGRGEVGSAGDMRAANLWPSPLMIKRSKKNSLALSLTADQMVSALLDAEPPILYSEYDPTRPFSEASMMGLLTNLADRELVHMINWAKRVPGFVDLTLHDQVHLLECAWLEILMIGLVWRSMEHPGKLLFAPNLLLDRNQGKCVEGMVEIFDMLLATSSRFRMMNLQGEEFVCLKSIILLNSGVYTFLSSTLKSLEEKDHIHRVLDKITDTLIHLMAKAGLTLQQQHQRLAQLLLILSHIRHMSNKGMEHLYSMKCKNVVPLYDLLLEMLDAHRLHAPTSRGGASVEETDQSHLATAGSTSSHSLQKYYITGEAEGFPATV
The source made the active and inactive calls. The call rests on the fitted dose curve; in most records, active means well fitted curve in the direction sought with a large enough effect in the signal ratio in the repeat runs (not every such curve was filed as active); inconclusive means weak or mixed curves, or effect the other way; inactive means no such curve, though single readings can be large or run the other way; the % refers to the signal ratio.
Would you mind answering with one of these outcomes? YES for active, NO for inactive

> print(dat)
                                  molecule                             target.entity  assigned.label
1                      COC(=O)C(Cl)C(=O)OC  Estrogen receptor (Homo sapiens) (UniProt P03372)              NO
2                                   OCCCBr  Estrogen receptor (Homo sapiens) (UniProt P03372)              NO
3  COP(=O)(OC)O/C(=C/Cl)c1cc(Cl)c(Cl)cc1Cl  Estrogen receptor (Homo sapiens) (UniProt P03372)             YES

Query: Each molecule tested received a call. Report the one for CCCN(CCCl)c1c([N+](=O)[O-])cc(C(F)(F)F)cc1[N+](=O)[O-] .
Reply: NO

Query: What about CN(N=O)c1ccc([N+](=O)[O-])cc1 ?
Reply: NO

Query: What about CCC(C)(NC(=O)c1cc(Cl)c(C)c(Cl)c1)C(=O)CCl (stereo unspecified) ?
Reply: YES

Query: What about N#C/C(N)=C(/N)C#N ?
Reply: NO

Query: What about O=C(CBr)OCc1ccccc1 ?
Reply: NO

Query: What about COP(=S)(Oc1cc(Cl)c(Br)cc1Cl)c1ccccc1 (stereo unspecified) ?
Reply: NO

Query: What about C/C(=C\c1ccccc1)[N+](=O)[O-] ?
Reply: YES

Query: What about O=C(NCc1cccnc1)Nc1ccc([N+](=O)[O-])cc1 ?
Reply: NO

Query: What about CCOc1nc(F)cc2nc(S(=O)(=O)Nc3c(Cl)cccc3Cl)nn12 ?
Reply: NO

Query: What about CC(=O)C(C)(C)C ?
Reply: NO

Query: What about O=S(=O)(O)C(F)(F)C(F)(F)C(F)(F)C(F)(F)F ?
Reply: NO

Query: What about CCCC(=O)Cl ?
Reply: NO

Query: What about CCCCc1c(C)nc(NCC)nc1OS(=O)(=O)N(C)C ?
Reply: NO

Query: What about C=CC(=O)OCC(C)C ?
Reply: NO

Query: What about CCCCNP(N)(N)=S ?
Reply: NO

----------
assay: qHTS assay for identifying genotoxic compounds that show differential cytotoxicity against isogenic chicken DT40 cell lines with known DNA damage response pathways - Rev3 mutant cell line (AID 743014); conditions: chicken DT40 Rev3-/- viability, CellTiter-Glo, 40 h; series mostly up to 68.4 µM; further: on the % scale 0 is the no-effect control and ±100 the full control effect; nearly all actives have a fitted effect of over 55% in size
Records with an inconclusive call do not appear. Calls of active or inactive are those of the source. The call rests on the fitted dose curve; in most records, active means well fitted cell-killing curve with a large enough effect in the repeat runs; inconclusive means weak or mixed curves, or effect the other way; inactive means no such curve, though single readings can be large or run the other way.
Would you mind answering with one of these outcomes? 1 = active, 0 = inactive

Some solved cases for reference:
> print(dat)
                                   compound  assigned.label
1  COc1c(C(C)(C)C)cc([N+](=O)[O-])c(C)c1[N+](=O)[O-]               0
2                       c1ccc(CN2CCNCC2)cc1               0
3  COP(=S)(Oc1cc(Cl)c(Br)cc1Cl)c1ccccc1 (stereo not drawn)               0

Query: Each compound tested received a call. Report the one for Cc1ccc(N)cc1C .
Reply: 0

Query: What about COC(=O)C(Br)CBr (stereo not drawn) ?
Reply: 0
